test system: U-251; assay: NCI tumour cell line growth inhibition, 48 h
The source made the active and inactive calls. Cut-off read from the data, not from the text of the source: active = GI50 up to about 1.1 µM and inactive = higher.
Provide the recorded GI50 for the entries that follow.

I have this compound here, `C[C@H](NC(=O)CNC(=O)CCCCCC(=O)NCC(=O)N[C@@H](C)C(=O)OCc1ccccc1)C(=O)OCc1ccccc1` , and I need its recorded GI50. > 100 µM (inactive)

Would you mind doing `C=CCNC(=S)OCCCCCCCCCC` as well? 16.7 µM (inactive)

Here is the next compound: `CC(C)c1cc(C(C)C)c(Cl)c(Cl)c1O.CC(C)c1cc(Cl)c(O)c(C(C)C)c1Cl` 34.7 µM (inactive)

Okay, and `CN1CCc2c1nc(-c1ccccc1)c1c2N(C)CC1` ? > 100 µM (inactive)

Repeat for the following compound: CC(=O)OCC1OC(N=[N+]=[N-])C(OC(C)=O)C(OC(C)=O)C1OC1OC(COC(C)=O)C(OC(C)=O)C(OC(C)=O)C1OC(C)=O (configuration not stated) > 100 µM (inactive)

Request: CC(C)c1cccc(C(C)C)c1NC(=O)C(=O)C(C(=O)c1ccccc1-c1ccccc1)C1OC(=O)c2ccccc21 (configuration not stated) 12.8 µM (inactive)

`CCN1C(=O)/C(=C\Nc2ccccc2)S/C1=N/Nc1ncc(CC(=O)Nc2ccccc2C)s1` ? 60.5 µM (inactive)

Try this compound too: COc1cc2c(cc1O)C(Cc1ccc(OCc3ccccc3)c(OCc3ccccc3)c1)N(C(=O)NCCc1ccccc1)CC2 (configuration not stated) > 100 µM (inactive)

Next record, please: `COc1ccc(OC)c(/C=C2/C(=O)N/C(=N\C(C)=O)N2C)c1` > 100 µM (inactive)

Okay, and `[N-]=[N+]=Nc1ccccc1C(=O)N1C(=O)c2ccccc2C(=O)N(C(=O)c2ccccc2N=[N+]=[N-])c2ccccc21` ? 40 µM (inactive)

Same question, C=C(C)CCC(=O)[C@](C)(O)[C@H]1[C@H](O)C[C@@]2(C)[C@@H]3CCc4c(cc(OC5OC(CO)C(O)C(O)C5O)c(O)c4C)C3(C)C(=O)C[C@]12C (some centres not stated) this time > 100 µM (inactive)

Please do the same for `c1cc2sc1CSCCSCCSC2` as well. > 100 µM (inactive)

// query: `CCOC(=O)c1cc2c(nc1N)-c1ncccc1CC2` 43.8 µM (inactive)

Another: C=CCC1NCCC2=C1C(S(=O)(=O)c1ccc(C)cc1)c1ccccc12 (configuration not stated) 11.5 µM (inactive)

Further, for `COc1cccc(NC(=O)CC(=O)Nc2cccc(OC)c2)c1` ? > 100 µM (inactive)

Request: CC(C)CC(NC(=O)C(COc1ccc([N+](=O)[O-])cc1)Cc1ccccc1)C(=O)Nc1ccccc1 (configuration not stated) 12.6 µM (inactive)

Now the compound CCn1c2c(c3ccccc31)C(c1ccccc1)CC1C(=O)N(c3ccccc3)C(=O)C21 (configuration not stated) > 10 µM (inactive)

---

For each entry below, report its GI50 value.
tested on: SNB-75; experiment: NCI tumour cell line growth inhibition, 48 h
Calls of active or inactive are those of the source. Rule as the data show it: active = GI50 up to about 1.1 µM and inactive = higher.

Tell me the measured GI50 of `CC(C)(C)OC(=O)NCC(=O)N1CCCN(C(=O)CNC(=O)OC(C)(C)C)CC1` , please. > 100 µM (inactive)

Please answer likewise for `CN(C)CCN(C)P12(Oc3ccccc3O1)Oc1c(Cl)c(Cl)c(Cl)c(Cl)c1O2` 13.7 µM (inactive)

Thanks! And COc1cccc(C(C#N)NNC(=O)c2c(Cl)c(Cl)c(Cl)c(Cl)c2-c2nc3cc(C(=O)c4ccccc4)ccc3[nH]2)c1O (stereo unspecified) ? 2 µM (inactive)

Now this one: O=C1C=C/C(=N\c2ccc3c(c2)C(Br)c2ccccc2-3)O1 (stereo unspecified) > 100 µM (inactive)

Follow-up entry: `ClCCN1CCO/C1=N/c1ccc2c(c1)CCCC2` 13.3 µM (inactive)

Same question for `N#CC(CC(=O)O)=C(c1ccccc1)c1ccccc1` please. > 100 µM (inactive)

Thanks! And `CCN1C(=O)/C(=C\Nc2ccccc2)S/C1=N/Nc1ncc(CC(=O)Nc2ccccc2C)s1` ? 28.4 µM (inactive)

What do we get for `N/C(=N\O)N/N=C\c1ccccc1O` ? 9.48 µM (inactive)

Again, but for `COc1cc(C(c2c(O)c3ccccc3oc2=O)c2c(O)c3ccccc3oc2=O)ccc1O` 20.7 µM (inactive)

Same thing, different compound: `O=C1N[C@@H]2c3c(Br)sc(Br)c3C(=O)[C@@H]2N1` 7.73 µM (inactive)

Follow-up entry: `N#Cc1nnn(C2CCCCC2)c1O` > 100 µM (inactive)

Follow-up entry: `Oc1ccc(Cn2c(-c3ccc(O)cc3)nc3ccccc32)cc1` > 100 µM (inactive)

What would you report for `Cc1ccc(-c2nc3cc(Cl)ccc3[nH]2)cc1` ? > 100 µM (inactive)

Request: CCCCN(CCCC)CC(O)c1cc(-c2ccc(C(F)(F)F)cc2)nc(-c2ccc(C(F)(F)F)cc2)c1 (stereo unspecified) 13.8 µM (inactive)

Moving on to the next compound: `NNC(=O)C(=O)N/N=C(\CCCC(=O)Nc1ccc(Cl)cc1)CC(=O)c1ccc(F)cc1` > 100 µM (inactive)

Cool, now `COC(=O)[C@@H](O)[C@](O)(CCC(C)C)C(=O)O[C@@H]1C(OC)=C[C@]23CCCN2CCc2cc4c(cc2[C@H]13)OCO4` 1.62 µM (inactive)

Try Cc1cccc2c1CC1(C2)Cc2c(C)cccc2C1=O (stereo unspecified) next. 18.6 µM (inactive)

Continue with CCOC(=O)C(CC(C)C)NC(=O)C(N)Cc1ccc(N(CCCl)CCCl)cc1 (stereo unspecified) 3.94 µM (inactive)

How about `CN(C)S(=O)(=O)c1nc(Cl)c2nc[nH]c2n1` ? 36.9 µM (inactive)

# repeat for `COc1cccc(O)c1-c1cc(=O)c2c(O)c(OC)c(OC)c(OC)c2o1` 23 µM (inactive)

Moving on to `C/N=c1\sc2c(n1C)C(=O)c1ccccc1C2=O` 2.06 µM (inactive)

---

tested on: HL-60; assay: NCI tumour cell line growth inhibition, 48 h
Calls of active or inactive are those of the source. Rule as the data show it: active = GI50 up to about 1.1 µM and inactive = higher.
parameter: GI50

Write down the reported GI50 of `c1ccc(-c2cc(-c3cc(-c4ccccc4)no3)on2)cc1` , test system: HL-60. > 100 µM (inactive)

Same thing, different compound: `CCOC(=O)C1(C(=O)OCC)C[C@H]2CON=C2[C@@H]1c1ccc(C(F)(F)F)cc1` 27.7 µM (inactive)

Another compound to look at: `O=C(CSc1nc2ccc(I)cc2c(=O)n1Cc1ccccc1)Nc1ccc(Br)cc1` > 100 µM (inactive)

Same question for COC(=O)CCC(C)[C@H]1CCC2C3C(C[C@H](OC(C)=O)[C@@]21C)[C@@]1(C)CCC2(C[C@H]1C[C@H]3OC(C)=O)OOC1(CCC(C(C)(C)C)CC1)OO2 (stereo not given in full) please. 9.4 µM (inactive)

Follow-up item: CC(CSC(=N)N)C(N)=O (stereo not given) > 100 µM (inactive)

What do we get for CC(=O)OCC1OC(N=[N+]=[N-])C(OC(C)=O)C(OC(C)=O)C1OC1OC(COC(C)=O)C(OC(C)=O)C(OC(C)=O)C1OC(C)=O (stereo not given) ? > 100 µM (inactive)

Another compound to check: `c1csc(-c2nn3c(C45CC6CC(CC(C6)C4)C5)nnc3s2)c1` > 100 µM (inactive)

Next: CCOc1ccc(OP2(=O)NC(=O)C=C(C)N2)cc1 (stereo not given) 37.8 µM (inactive)

Do the same for CCC1(O)CC(c2ccccc2)N(C)C(c2ccccc2)C1 (stereo not given) please 69.2 µM (inactive)

Similarly, COc1ccc(/N=N/C(=O)NC(CC(C)C)C(=O)NCC(=O)O)cc1 (stereo not given) ? 5.9 µM (inactive)

Same read-out for COC(=O)c1c2c(cc3c1CC1(Cc4ccc(C(C)=O)cc4C1)C3)CCC2 (stereo not given) ? 17.1 µM (inactive)

What about `CCOc1cccc(/C=N/N=C2\C(=O)Nc3c(Cl)cc(Cl)cc32)c1O` ? 33.4 µM (inactive)

Follow-up entry: `COC(=O)c1csc(-c2nc(CCNC(=O)OC(C)(C)C)sc2Br)n1` > 100 µM (inactive)

Okay, and `COc1cc2ccc1OCc1cccc(n1)COc1ccc(cc1OC)/C=N\c1ccc(cc1)-c1ccc(cc1)/N=C\2` ? > 100 µM (inactive)

Thanks! And `NC(=O)N/N=C(\Cc1nc2ccc(C(=O)c3ccccc3)cc2nc1O)C(=O)Nc1ccc(Br)cc1` ? > 100 µM (inactive)

Query `Cc1ccc(S(=O)(=O)NC(=O)Nc2ccc(C(=O)O)c(O)c2)cc1` next > 100 µM (inactive)

Also need `CC(C)(C)n1[nH]c(=O)n(C(C)(C)C)c1=O` , thanks. > 100 µM (inactive)

Field entry: COc1ccc(C2C(=O)C(Cl)N2Nc2nc(C)cc(O)n2)cc1OC (stereo not given) 13.9 µM (inactive)

Can you check `CN1CCc2c1nc(-c1ccc([N+](=O)[O-])cc1)c1c2N(C)CC1` next? 60.1 µM (inactive)

Do the same for `CN1CCCNCCN(CCc2ccccn2)CCCN(C)CC1` please > 48.8 µM (inactive)

Reference source for all entries: ChEMBL document CHEMBL1201862
